Field: growth. Provide a value for each of the compounds that follow.
- Tested on: UO-31 renal
- Protocol details: NCI-60 one-dose screen, 48 h (100 = growth as untreated, 0 = no growth, -100 = all killed)
- Applied conditions: 10 µM unless noted
The panel holds about 83,000 compounds, 20% with a hit somewhere; the sample as a whole holds those more often.
Answers are plain numbers, in %.

Recorded results for 6 compounds are shown here.
>  <Compound>
COc1ccc(C2C(C#N)=C(N)Oc3c2sc2c(F)cccc32)cc1 (configuration not stated)

>  <Units text>
%

>  <growth>
37.6

$$$$
>  <Compound>
NNC(=O)c1nc2ccccc2[nH]1

>  <Units text>
%

>  <growth>
101

$$$$
>  <Compound>
O=C(O)c1cccc2c1C(=O)N(c1ccc3c(c1)Cc1ccccc1-3)C2=O

>  <Units text>
%

>  <growth>
85.6

$$$$
>  <Compound>
O=C1CCN2C(=O)Nc3ccccc3C2C1 (configuration not stated)

>  <Units text>
%

>  <growth>
94.1

$$$$
>  <Compound>
O=S(=O)(NCCCNc1cc(-c2cn(-c3ccccc3)nc2-c2cccc(O)c2)ccn1)c1ccc(F)cc1

>  <Units text>
%

>  <growth>
21.9

$$$$
>  <Compound>
CCCCN1CCCCn2c1nc1c2c(=O)n(C)c(=O)n1C

>  <Units text>
%

>  <growth>
93.1

$$$$

List growth for every entry below, keeping the order given.
1. COc1ccc(C2NC(=O)Nc3ccccc32)c(OC)c1 (configuration not stated)
2. COc1cc2c(cc1OC)C(=O)/C(=C/c1cc(-c3ccc4c(c3)OCO4)n[nH]1)C2
3. COC(=O)C(N)CSC(c1ccccc1)(c1ccccc1)c1ccccc1 (configuration not stated)
4. CCc1ccc(-c2ccc(Nc3ccccc3)nn2)cc1S(N)(=O)=O
5. N=c1ccc2nc3c(cc(N)c4ccccc43)oc-2c1

Response line:
1: 78.3; 2: -72.6; 3: 52.6; 4: 101; 5: -78.7

====

- Test system: NCI-H460 lung
- Protocol details: NCI-60 one-dose screen, 48 h (100 = growth as untreated, 0 = no growth, -100 = all killed)
- Applied conditions: 10 µM unless noted
Compounds without any hit were thinned out: in the full panel of roughly 83,000, 20% have a hit.
Metric: growth (%)
Give bare numbers, in %.

Answered cases to consult:
>  <Smiles input>
N#C/C(=C\c1ccc(-c2ccc(Br)cc2)o1)c1nc(-c2ccco2)cs1

>  <growth (%)>
91.4

$$$$
>  <Smiles input>
O=C(O)c1cccc2c1-c1ccc(Cl)cc1C2

>  <growth (%)>
113

$$$$
>  <Smiles input>
Cn1cccc1/C=C1/SC(=S)N(CCc2ccc(O)cc2)C1=O

>  <growth (%)>
33.6

$$$$

Give one value of growth per listed compound.
1. COc1ccc(C(=O)/C=C/c2cc(-c3cc(OC)c(OC)c(OC)c3)n[nH]2)cc1OC
2. CCN(CC)CCCCCCNc1ccnc2cc(Cl)ccc12

Response line:
[-17.4, 92.9]

====

- System: MALME-3M melanoma
- Protocol details: NCI-60 one-dose screen, 48 h (100 = growth as untreated, 0 = no growth, -100 = all killed)
- Applied conditions: 10 µM unless noted
Compounds without any hit were thinned out: in the full panel of roughly 83,000, 20% have a hit.
Metric: growth (%)
Give bare numbers, in %.

Field: growth. Fill in for each record below.
1. CCCCC(=O)OC1CCCCC1C (stereo not given)
2. Cc1cc(N(CCCNc2ccnc3cc(Cl)ccc23)Cc2ccco2)nc(Cl)n1
3. COC(=O)[C@]12CC[C@@H](C(=O)/C=C/c3cccnc3)[C@@H]1[C@H]1CC[C@@H]3[C@@]4(C)C/C(=C/c5cccnc5)C(=O)C(C)(C)[C@@H]4CC[C@@]3(C)[C@]1(C)CC2
4. COc1ccc(/C=C/C(=O)NCCO)cc1
5. COc1cccc(-c2nn(-c3ccccc3)cc2-c2ccnc(NCCCNS(=O)(=O)c3ccc(C(F)(F)F)cc3)c2)c1
6. COc1cc(C(=O)/C=C/c2cc(-c3ccc4c(c3)OCO4)n[nH]2)cc(OC)c1OC
7. O=C1CCN2C(=O)Nc3ccccc3C2C1 (stereo not given)

Response line:
94.6
74
-95.2
92.3
25.8
68.5
87.4
